Experiment: Pharmacokinetic studies in mice after single s.c. or oral dose
Details: female, CD-1, mouse, plasma, po, 20 mg/kg, PK p.o. AUC0-48, mice, 20 mg/kg p.o. (footnote *)
MEASUREMENT KIND: AUC(0-t) (µM·h)
// return numeric value only (unit: µM·h, not printed)

So for CCN(CC)CCCCCCOc1ccc(C(c2ccc(OCCCCCCN(CC)CC)cc2)=C2[C@H]3C[C@@H]4C[C@@H](C[C@H]2C4)C3)cc1 [NB-51] , the logged AUC(0-t) turned out to be 1.8

---

Experiment: Pharmacokinetic studies in mice after single s.c. or oral dose
Conditions: female, CD-1, mouse, plasma, sc, 40 mg/kg
MEASUREMENT KIND: half-life (h)
Express it in h; write the number only.

CHEMICAL STRING: C[n+]1ccn(CCCCCCOc2ccc(C(=C3C4CC5CC(C4)CC3C5)c3ccc(Cl)cc3)cc2)c1
half-life, h: 36.8

Please examine the following record next.
Entry "CCN(CC)CCCCCCOc1ccc(C(=C2C3CC4CC(C3)CC2C4)c2ccc(O)cc2)cc1" ; half-life = 22.5
